Target: rat NaPi-2b (Rattus norvegicus)
Test: Sodium-dependent phosphate uptake of Xenopus oocytes which expressed NaPi-2b (32P)
Conditions: Xenopus oocytes expressing rat NaPi-2b, 32P radioactive phosphorus; read-out: IC50 (phosphate uptake inhibitory activity)
Method: Pharmacological Test Example 1 Experiment of Sodium-Dependent Phosphate Uptake of Xenopus oocytes which Expressed NaPi-2b Degenerate primers were prepared from sequences of mouse NaPi-2b disclosed in Hilfiker H. et al., Pro Natl Acad Sci USA, 95 (24): 14564-14569, […] and sequences of human and rat NaPi-2a disclosed in Magagnin S. et al., Proc Natl Aca Sci USA, 90 (13): 5979-5983, 1993. RNA was extracted from the rat small intestine using ISOGEN; manufactured by NIPPON GENE CO., LTD (Japan). […]
pIC50: −log10 of the molar value.
We begin with a simple list: items and their reported pIC50.

# molecule, limit operator, pIC50
measured = [
    ("O=C(Nc1ccc(N2CCCC(C(=O)O)C2)cc1C(=O)N/N=C/c1ccc(Cl)c(C(F)(F)F)c1)c1cccc(CSCCO)c1 (centres unmarked)", "=", 4.59),
    ("CCN(CC)CCN(C)Cc1cccc(C(=O)Nc2ccc(N3CCCCC3)cc2C(=O)N/N=C/c2ccc(Cl)c(C(F)(F)F)c2)c1", "=", 6.46),
    ("Cc1csc(NC(=O)c2cccc(CSCCCO)c2)c1C(=O)N/N=C/c1ccc(Cl)c(C(F)(F)F)c1", "=", 6.51),
    ("CCN(CC)CCN(C)Cc1cccc(C(=O)Nc2ccc(OCCOCCOC)cc2C(=O)N/N=C/c2ccc(OC)cc2)c1", "=", 4.41),
    ("Cc1ccc(/C=N/NC(=O)c2cc(Br)ccc2NC(=O)c2ccncc2)cc1", "=", 5.37),
    ("Cc1ccc(/C=N/NC(=O)c2cc(N3CCCC3)ccc2NC(=O)c2cccc(CSCCO)c2)cc1C", "=", 6.51),
    ("CCCN(CCC)c1ccc(NC(=O)c2cccc(CN(C)CCN(CC)CC)c2)c(C(=O)N/N=C/c2ccc(OC)cc2)c1", "=", 5.98),
    ("COc1ccc(C(=O)Nc2ccccc2C(=O)N/N=C/c2cccc(Oc3cccc(C(F)(F)F)c3)c2)cc1OC", "=", 5.19),
    ("Cc1ccc(/C=N/NC(=O)c2cc(Cl)ccc2NC(=O)c2cccc(CSc3nnnn3CCN(C)C)c2)cc1", "=", 5.13),
    ("O=C(Nc1ccc(I)cc1C(=O)N/N=C/c1ccc(O)cc1)c1cccc(CN2CCC(N3CCCCC3)CC2)c1", ">", 5.52),
    ("CCOCCN(CCOCC)Cc1ccc(C(=O)Nc2ccc(Br)cc2C(=O)N/N=C/c2cccc(C)c2)cc1", "=", 4.74),
    ("Cc1cccc(/C=N/NC(=O)c2cc(Br)ccc2NC(=O)c2ccc(CN3CCC(N4CCCCC4)CC3)cc2)c1", "=", 5.11),
    ("Cc1ccc(/C=N/NC(=O)c2c(NC(=O)c3cccc(CN(CC(C)O)CC(C)O)c3)sc(C)c2C)cc1C (centres unmarked)", ">", 5.52),
    ("CCN(CCO)Cc1cccc(C(=O)Nc2ccc(Cl)cc2C(=O)N/N=C/c2cccc(OC)c2)c1", "=", 5.74),
]

* * *

// reported pIC50 for each item listed
Target: rat NaPi-2b (Rattus norvegicus, UniProt Q9JJ09)
Sequence (Q9JJ09 whole entry): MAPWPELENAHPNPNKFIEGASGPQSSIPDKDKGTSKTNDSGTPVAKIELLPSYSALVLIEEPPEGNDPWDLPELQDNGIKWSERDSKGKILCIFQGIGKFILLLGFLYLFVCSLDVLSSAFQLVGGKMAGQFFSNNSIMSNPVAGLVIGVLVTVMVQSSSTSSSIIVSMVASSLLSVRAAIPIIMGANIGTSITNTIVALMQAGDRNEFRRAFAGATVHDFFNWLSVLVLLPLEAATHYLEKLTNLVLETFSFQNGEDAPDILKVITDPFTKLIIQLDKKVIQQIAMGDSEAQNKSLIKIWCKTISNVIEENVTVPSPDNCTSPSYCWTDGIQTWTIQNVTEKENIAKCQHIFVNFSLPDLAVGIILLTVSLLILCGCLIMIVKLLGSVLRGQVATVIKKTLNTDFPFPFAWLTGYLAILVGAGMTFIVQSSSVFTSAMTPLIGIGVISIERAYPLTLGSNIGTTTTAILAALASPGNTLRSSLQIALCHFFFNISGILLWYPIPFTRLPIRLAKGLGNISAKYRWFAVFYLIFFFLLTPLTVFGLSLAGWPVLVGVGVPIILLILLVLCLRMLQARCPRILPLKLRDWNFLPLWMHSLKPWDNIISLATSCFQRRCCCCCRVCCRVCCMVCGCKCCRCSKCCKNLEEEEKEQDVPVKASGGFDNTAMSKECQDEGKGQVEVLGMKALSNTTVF
Test: Sodium-dependent phosphate uptake of Xenopus oocytes which expressed NaPi-2b (32P)
Conditions: Xenopus oocytes expressing rat NaPi-2b, 32P radioactive phosphorus; read-out: IC50 (phosphate uptake inhibitory activity)
pIC50: −log10 of the molar value.
quantity name: pIC50

# compound, quantity name, limit operator, numeric result
data = [
    ("COc1cc(OC)cc(C(=O)Nc2ccccc2C(=O)N/N=C/c2ccc(OC)c(Br)c2)c1", "pIC50", "=", 5.52),
    ("O=C(Nc1ccc(N2CCCCC2)cc1C(=O)N/N=C/c1ccc(Cl)c(C(F)(F)F)c1)c1cccc(CN2CCc3nc4ncccc4cc3C2)c1", "pIC50", ">", 6.52),
    ("COc1ccc(/C=N/NC(=O)c2cc(N3CCCCC3)ccc2NC(=O)c2cccc(CN(CC(C)O)CC(C)O)c2)cc1 (centres unmarked)", "pIC50", ">", 6.00),
    ("CCN(CC)CCN(CCN(CC)CC)Cc1cccc(C(=O)Nc2scc(C)c2C(=O)N/N=C/c2ccc(C)cc2)c1", "pIC50", "=", 5.30),
    ("COc1cc(OC)cc(C(=O)Nc2ccccc2C(=O)N/N=C/c2cccc(F)c2)c1", "pIC50", "=", 6.07),
    ("COc1ccc(/C=N/NC(=O)c2c(C)csc2NC(=O)c2cccc(CN(CCO)CCO)c2)cc1", "pIC50", "=", 5.26),
    ("COc1ccc(C(=O)Nc2ccccc2C(=O)N/N=C/c2cccc(C)c2)cc1", "pIC50", "=", 5.47),
    ("CCN(CC)CCN(C)Cc1cccc(C(=O)Nc2c(C)csc2C(=O)N/N=C/c2ccc(C)c(C)c2)c1", "pIC50", "=", 4.49),
    ("O=C(Nc1ccc(Br)cc1C(=O)N/N=C/c1ccc(Cl)c(C(F)(F)F)c1)c1ccc(CN2CCC(CCO)CC2)cc1", "pIC50", "=", 5.21),
    ("COc1ccc(NC(=O)c2ccc(OC)c(OC)c2)c(C(=O)N/N=C/c2cccc(C)c2)c1", "pIC50", "=", 5.23),
    ("Cc1ccc(/C=N/NC(=O)c2scc(C)c2NC(=O)c2cccc(CN3CCC(N4CCCCC4)CC3)c2)cc1C", "pIC50", "=", 3.89),
    ("COc1ccc(/C=N/NC(=O)c2cc(N3CCCC3)ccc2NC(=O)c2cccc(CSCCO)c2)cc1", "pIC50", "=", 5.91),
    ("Cc1ccc(/C=N/NC(=O)c2cc(Br)ccc2NC(=O)c2ccco2)cc1", "pIC50", "=", 5.63),
    ("COc1ccc(NC(=O)c2cccc(CSCC(O)CO)c2)c(C(=O)N/N=C/c2ccc(C)cc2)c1 (centres unmarked)", "pIC50", "=", 6.04),
    ("Cc1csc(NC(=O)c2cccc(CSc3nc[nH]n3)c2)c1C(=O)N/N=C/c1ccc(Cl)c(C(F)(F)F)c1", "pIC50", ">", 5.52),
    ("COc1cc(/C=N/NC(=O)c2ccccc2NC(=O)c2ccc(OC)c(OC)c2)ccc1O", "pIC50", "=", 5.09),
    ("Cc1ccc(/C=N/NC(=O)c2c(C)csc2NC(=O)c2cccc(CN3CCC(CO)CC3)c2)cc1", "pIC50", "=", 5.42),
    ("COc1ccc(/C=N/NC(=O)c2cc(Cl)ccc2NC(=O)c2cccc(CN(CCO)CCO)c2)cc1", "pIC50", "=", 5.60),
    ("COc1ccc(C(=O)Nc2ccc(I)cc2C(=O)N/N=C/c2ccc(Cl)c(C(F)(F)F)c2)cc1OC", "pIC50", ">", 6.00),
    ("COc1ccc(/C=N/NC(=O)c2c(C)csc2NC(=O)c2cccc(CN3CCN(CCO)CC3)c2)cc1", "pIC50", ">", 5.52),
    ("O=C(Nc1ccc(Br)cc1C(=O)N/N=C/c1cccc(OCCO)c1)c1ccncc1", "pIC50", "=", 4.60),
    ("C=CCOc1ccc(/C=N/NC(=O)c2ccccc2NC(=O)c2ccc(OC)c(OC)c2)cc1", "pIC50", "=", 4.98),
    ("O=C(Nc1ccc(Br)cc1C(=O)N/N=C/c1ccc(F)cc1)c1ccc(CN2CCC(CCO)CC2)cc1", "pIC50", "=", 4.84),
    ("O=C(Nc1ccc(Br)cc1C(=O)N/N=C/c1cccc(F)c1)c1ccc(CSCCCO)cc1", "pIC50", "=", 5.80),
    ("Cc1cccc(/C=N/NC(=O)c2cc(Cl)ccc2NC(=O)c2cccnc2)c1", "pIC50", "=", 5.00),
    ("CCN(CC)CCN(CCN(CC)CC)Cc1cccc(C(=O)Nc2scc(C)c2C(=O)N/N=C/c2ccc(OC)cc2)c1", "pIC50", "=", 5.38),
    ("Cc1ccc(/C=N/n2c(-c3cccc(CSc4nc[nH]n4)c3)nc3sc4c(c3c2=O)CCCC4)cc1C", "pIC50", "=", 5.75),
    ("CN(CCCN(C)Cc1cccc(C(=O)Nc2ccc(Cl)cc2C(=O)N/N=C/c2cccc(F)c2)c1)Cc1cccc(C(=O)Nc2ccc(Cl)cc2C(=O)N/N=C/c2cccc(F)c2)c1", "pIC50", "=", 4.44),
    ("Cc1ccc(/C=N/NC(=O)c2cc(Cl)ccc2NC(=O)c2cccc(CSCCS(=O)(=O)O)c2)cc1", "pIC50", "=", 4.15),
]
